Test system: Trichophyton benhamiae
measurement_protocol: Antifungal activity against Trichophyton mentagrophytes MUCC 665 after 48 hrs by disc diffusion method
Type: functional, Arthroderma benhamiae
# inhibition zone (IZ) per record follows
Field: numeric (mm). Do not append units.

- smiles_text: "COC(=O)[C@H](Cc1c[nH]c2ccccc12)NC(=O)c1cc(-c2nc3ccc([N+](=O)[O-])cc3[nH]2)ccc1O"
  target_system: "Trichophyton benhamiae"
  endpoint_unit: "mm"
  inhibition zone (IZ): 17
- smiles_text: "COC1=CC(=O)C[C@@H](C)[C@]12Oc1c(Cl)c(OC)cc(OC)c1C2=O"
  target_system: "Trichophyton benhamiae"
  endpoint_unit: "mm"
  inhibition zone (IZ): 20
- smiles_text: "COC(=O)[C@H](C)NC(=O)[C@H](CCCNC(=N)N[N+](=O)[O-])NC(=O)c1cc(-c2nc3cc(C)c(C)cc3[nH]2)ccc1O"
  target_system: "Trichophyton benhamiae"
  endpoint_unit: "mm"
  inhibition zone (IZ): 10
- smiles_text: "COC(=O)[C@H](CCCNC(=N)N[N+](=O)[O-])NC(=O)c1cc(-c2nc3ccc([N+](=O)[O-])cc3[nH]2)ccc1O"
  target_system: "Trichophyton benhamiae"
  endpoint_unit: "mm"
  inhibition zone (IZ): 15

Q: Could you share which inhibition zone (IZ) value was measured for COC(=O)[C@H](Cc1cnc[nH]1)NC(=O)[C@H](Cc1cnc[nH]1)NC(=O)c1cc(-c2nc3cc(C)c(C)cc3[nH]2)ccc1O ?
Result: 15

Q: Also COC(=O)[C@H](Cc1ccccc1)NC(=O)c1cc(-c2nc3cc(C)c(C)cc3[nH]2)ccc1O , if possible.
Result: 15

Q: Also COC(=O)[C@@H]1CCCN1C(=O)[C@H](Cc1cnc[nH]1)NC(=O)c1cc(I)c(-c2nc3cc(C)c(C)cc3[nH]2)c(I)c1 , if possible.
Result: 12

Q: Also COC(=O)CNC(=O)[C@H](CC(C)C)NC(=O)c1ccc(-c2nc3cc(C)c(C)cc3[nH]2)cc1 , if possible.
Result: 12

Q: Also CC(C)[C@H](NC(=O)c1cc(-c2nc3ccc([N+](=O)[O-])cc3[nH]2)ccc1O)C(=O)N[C@@H](Cc1ccccc1)C(=O)N[C@@H](Cc1cnc[nH]1)C(=O)O , if possible.
Result: 13

Q: Also COC(=O)[C@@H](NC(=O)c1cc(I)c(-c2nc3cc(C)c(C)cc3[nH]2)c(I)c1)[C@@H](C)O , if possible.
Result: 10

Q: Also Cc1cc2nc(-c3ccc(O)c(C(=O)N[C@@H](Cc4c[nH]c5ccccc45)C(=O)N[C@@H](C)C(=O)N[C@@H](Cc4ccc(O)cc4)C(=O)O)c3)[nH]c2cc1C , if possible.
Result: 15

Q: Also COC(=O)[C@H](C)NC(=O)[C@@H](NC(=O)[C@H](C)NC(=O)c1cc(-c2nc3cc(C)c(C)cc3[nH]2)ccc1O)C(C)C , if possible.
Result: 14

Q: Also Cc1cc2nc(-c3c(I)cc(C(=O)N[C@@H](Cc4ccccc4)C(=O)N[C@H](C(=O)N4CCC[C@H]4C(=O)O)C(C)C)cc3I)[nH]c2cc1C , if possible.
Result: 13

Q: Also COC(=O)[C@H](Cc1ccccc1)NC(=O)[C@@H]1CCCN1C(=O)[C@@H]1CCCN1C(=O)c1ccc(-c2nc3cc(C)c(C)cc3[nH]2)cc1 , if possible.
Result: 13

Q: Also COC(=O)CNC(=O)CNC(=O)c1cc(-c2nc3ccc([N+](=O)[O-])cc3[nH]2)ccc1O , if possible.
Result: 15
